assay-target: T1, alcalase (trade name "Alcalase 2.5L", Novozymes) (UniProt P00780)
T1 sequence (looked up): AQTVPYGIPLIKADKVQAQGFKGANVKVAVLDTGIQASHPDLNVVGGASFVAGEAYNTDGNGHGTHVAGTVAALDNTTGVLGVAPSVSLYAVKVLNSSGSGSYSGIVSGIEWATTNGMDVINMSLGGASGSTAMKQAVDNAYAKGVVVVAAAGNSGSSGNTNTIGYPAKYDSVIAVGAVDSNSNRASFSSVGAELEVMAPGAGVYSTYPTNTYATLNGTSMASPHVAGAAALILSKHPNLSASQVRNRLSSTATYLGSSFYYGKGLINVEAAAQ
experiment-description: cell-based or functional assay
# note: exactly 9% is not below, so it is Not fulfilled; use Fulfilled for Remaining activity (%) immediately after preparation strictly under it

binder	assigned-category
proteinaceous protease inhibitor of SEQ ID NO:31 (protein) MSSVEKKPEGVNTGAGDRHNLKTEWPELVGKSVEEAKKVILQDKSEAQIAVLPVGTIVTMEYRIDRVRLFVDKLDNIAQVPRVG	Fulfilled

Say whether its Remaining activity (%) immediately after preparation is strictly beneath 9%. Entry: proteinaceous protease inhibitor of SEQ ID NO:11 (protein) TDTGDHHNQKTEWPELVGKSVEEAKKVILQDKSEAQIVVLPVGTIVTMEFRIDRVRLFVDSLDKIAQVPRVG Fulfilled

Say whether its Remaining activity (%) immediately after preparation is strictly beneath 9%. Entry: proteinaceous protease inhibitor of SEQ ID NO:27 (protein) TDTGDHHNQKTKWPELVGKSVEEAKKVILQDKSEAQIVVLPVGTIVTMEYRIDRVRLFVDSLDKIAQVPRVG Not fulfilled

Say whether its Remaining activity (%) immediately after preparation is strictly beneath 9%. Entry: proteinaceous protease inhibitor of SEQ ID NO:40 (protein) TECGGGGGAKTSWPEVVGLSVEEAKKVILKDKPDADIVVLPVGSVVTADYRPNRVRIFVDIVAQTPHVG Not fulfilled
